Values were extracted from ChEMBL document CHEMBL3885881.

CHOLESTEROL listing for selected molecules.
Species: Rattus norvegicus
ASSAY DETAILS: DrugMatrix - Regimen: Daily Repeat
Format: toxicity, organism-based, Sprague-Dawley
Design: regimen Daily Repeat, gender Male, age 6-8 weeks
ASSAY CONDITIONS: in vivo, po, 0 mg/kg, 120 h, tissue Plasma, route oral GAVAGE, dose level Control, time 5 day, vehicle 100 % WATER
Report the figure in mg/dL without appending any unit label.

# count of solved cases: 4
Cn1cnc([N+](=O)[O-])c1Sc1ncnc2nc[nH]c12: 71.33
Clc1ccc(C(c2ccccc2Cl)C(Cl)Cl)cc1 (stereo not given): 72.17
CC1(C)S[C@@H]2[C@H](NC(=O)[C@H](N)c3ccc(O)cc3)C(=O)N2[C@H]1C(=O)O: 76.33
O=C1NC(=O)C(c2ccccc2)(c2ccccc2)N1: 71.33

Please examine the following record next.
Data request: Which CHOLESTEROL reading was recorded for the molecule "NC(=O)c1ncn([C@@H]2O[C@H](CO)[C@@H](O)[C@H]2O)n1" ?
Data returned: 60.67
